// reported inhibition per item
# STUDY_SYSTEM: Phosphatidylinositol 4,5-bisphosphate 3-kinase catalytic subunit alpha isoform (Homo sapiens)
# Sequence (P42336 whole entry, canonical isoform): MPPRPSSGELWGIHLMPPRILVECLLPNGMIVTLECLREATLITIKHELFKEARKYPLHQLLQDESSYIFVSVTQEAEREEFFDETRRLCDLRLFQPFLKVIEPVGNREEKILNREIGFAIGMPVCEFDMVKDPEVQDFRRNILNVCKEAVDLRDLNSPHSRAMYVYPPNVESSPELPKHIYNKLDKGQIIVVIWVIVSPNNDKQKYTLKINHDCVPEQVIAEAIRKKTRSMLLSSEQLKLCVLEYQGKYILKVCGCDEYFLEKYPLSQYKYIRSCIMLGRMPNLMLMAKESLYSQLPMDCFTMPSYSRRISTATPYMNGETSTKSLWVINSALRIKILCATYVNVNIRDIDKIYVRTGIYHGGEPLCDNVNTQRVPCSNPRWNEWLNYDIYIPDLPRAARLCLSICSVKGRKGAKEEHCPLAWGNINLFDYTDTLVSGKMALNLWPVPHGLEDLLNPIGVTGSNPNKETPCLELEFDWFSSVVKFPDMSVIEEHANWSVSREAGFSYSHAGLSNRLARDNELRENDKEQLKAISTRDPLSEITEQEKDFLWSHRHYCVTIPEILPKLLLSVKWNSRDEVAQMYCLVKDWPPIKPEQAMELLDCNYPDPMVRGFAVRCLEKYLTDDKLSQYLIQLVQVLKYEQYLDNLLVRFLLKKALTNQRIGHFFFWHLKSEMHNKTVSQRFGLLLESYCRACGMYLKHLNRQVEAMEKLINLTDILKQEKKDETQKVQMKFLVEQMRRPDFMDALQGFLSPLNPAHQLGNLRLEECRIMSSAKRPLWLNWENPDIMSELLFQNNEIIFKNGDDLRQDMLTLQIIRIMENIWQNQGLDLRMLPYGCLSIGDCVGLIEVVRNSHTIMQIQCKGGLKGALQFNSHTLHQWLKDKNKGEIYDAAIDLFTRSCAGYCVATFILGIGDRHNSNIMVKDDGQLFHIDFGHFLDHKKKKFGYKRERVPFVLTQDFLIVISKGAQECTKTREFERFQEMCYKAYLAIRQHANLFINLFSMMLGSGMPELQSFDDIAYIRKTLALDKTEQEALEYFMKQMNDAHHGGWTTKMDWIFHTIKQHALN
# PROTOCOL: Inhibition of PI3Kalpha in human MCF7 cells assessed as reduction in AKT phosphorylation at 1 uM after 2 hrs by ELISA relative to control
# Assay type: cell-based
MEASURED_ENDPOINT: inhibition (%)

[[record]]
mol_smiles = "COc1ncc(-c2cnc3nccc(-c4cnn(C)c4)c3c2)cc1NS(=O)(=O)c1ccc(F)cc1F"
reported_value = 47

[[record]]
mol_smiles = "COc1ncc(-c2ccc3nccc(=O)n3c2)cc1NS(=O)(=O)c1ccc(F)cc1"
reported_value = 95

[[record]]
mol_smiles = "COc1ccc(S(=O)(=O)Nc2cc(-c3ccc4nccc(=O)n4c3)cnc2OC)cc1"
reported_value = 95

[[record]]
mol_smiles = "COc1ncc(-c2ccc3nccc(=O)n3c2)cc1NS(=O)(=O)c1cccc(F)c1"
reported_value = 96

[[record]]
mol_smiles = "CCS(=O)(=O)Nc1cc(-c2ccc3nccc(=O)n3c2)cnc1OC"
reported_value = 53

[[record]]
mol_smiles = "COc1ncc(-c2ccc3nccc(=O)n3c2)cc1NS(=O)(=O)c1ccccc1"
reported_value = 95

[[record]]
mol_smiles = "COc1ncc(-c2ccc3nccc(=O)n3c2)cc1NS(=O)(=O)c1ccc(F)cc1F"
reported_value = 98

[[record]]
mol_smiles = "COc1ncc(-c2ccc3nccc(=O)n3c2)cc1NS(=O)(=O)c1ccc(Cl)cc1"
reported_value = 96

[[record]]
mol_smiles = "COc1ncc(-c2ccc3nccc(=O)n3c2)cc1NS(=O)(=O)c1cc(F)ccc1F"
reported_value = 96

[[record]]
mol_smiles = "COc1ncc(-c2ccc3nccc(=O)n3c2)cc1NS(=O)(=O)c1ccccc1C"
reported_value = 94

[[record]]
mol_smiles = "COc1ncc(-c2ccc3nncc(N4CCOCC4)c3c2)cc1NS(=O)(=O)c1ccc(F)cc1F"
reported_value = 75

[[record]]
mol_smiles = "O=c1ccnc2ccc(-c3cnc(Cl)c(NS(=O)(=O)c4ccc(F)cc4F)c3)cn12"
reported_value = 92

[[record]]
mol_smiles = "COc1ncc(-c2ccc3nccc(=O)n3c2)cc1NS(=O)(=O)c1ccccc1F"
reported_value = 94

[[record]]
mol_smiles = "COc1ncc(-c2ccc3nccc(=O)n3c2)cc1NS(=O)(=O)CC(F)(F)F"
reported_value = 78

[[record]]
mol_smiles = "Cc1ncc(-c2ccc3nccc(=O)n3c2)cc1NS(=O)(=O)c1ccc(F)cc1F"
reported_value = 81

[[record]]
mol_smiles = "COc1ncc(-c2ccc3nccc(=O)n3c2)cc1NS(=O)(=O)c1ccc(C#N)cc1"
reported_value = 94

[[record]]
mol_smiles = "COc1ncc(-c2ccc3nccc(=O)n3c2)cc1NS(=O)(=O)c1ccc(C(F)(F)F)cc1"
reported_value = 94

[[record]]
mol_smiles = "COc1ncc(-c2cn3c(=O)ccnc3cn2)cc1NS(=O)(=O)c1ccc(F)cc1F"
reported_value = 29

[[record]]
mol_smiles = "O=c1ccnc2ccc(-c3cnc(Cl)c(NS(=O)(=O)c4ccccc4F)c3)cn12"
reported_value = 91

[[record]]
mol_smiles = "COc1ncc(-c2ccc3nccc(=O)n3c2)cc1NS(=O)(=O)c1cc(F)cc(F)c1"
reported_value = 98

[[record]]
mol_smiles = "CCc1ncc(-c2ccc3nccc(=O)n3c2)cc1NS(=O)(=O)c1ccc(F)cc1F"
reported_value = 86

[[record]]
mol_smiles = "CCOc1cnc2ccc(-c3cnc(OC)c(NS(=O)(=O)c4ccc(F)cc4F)c3)cn2c1=O"
reported_value = 76

[[record]]
mol_smiles = "CCOc1ncc(-c2ccc3nccc(=O)n3c2)cc1NS(=O)(=O)c1ccccc1F"
reported_value = 60

[[record]]
mol_smiles = "COc1ncc(-c2ccc3nccc(=O)n3c2)cc1NS(=O)(=O)C1CC1"
reported_value = 76

[[record]]
mol_smiles = "CCc1ncc(-c2ccc3nccc(=O)n3c2)cc1NS(=O)(=O)c1ccccc1F"
reported_value = 81

[[record]]
mol_smiles = "COc1ncc(-c2ccc3ncc(C)c(=O)n3c2)cc1NS(=O)(=O)c1ccc(F)cc1F"
reported_value = 90

[[record]]
mol_smiles = "Cc1ncc(-c2ccc3nccc(=O)n3c2)cc1NS(=O)(=O)c1ccccc1F"
reported_value = 82

[[record]]
mol_smiles = "COc1ncc(-c2ccc3ncc(Cl)c(=O)n3c2)cc1NS(=O)(=O)c1ccc(F)cc1F"
reported_value = 93

[[record]]
mol_smiles = "Cc1ncc(-c2ccc3nccc(=O)n3c2)cc1NS(=O)(=O)c1ccc(F)cc1"
reported_value = 85

[[record]]
mol_smiles = "COc1ncc(-c2cc3c(N4CCNC(=O)C4)ncnc3cn2)cc1NS(=O)(=O)c1ccc(F)cc1F"
reported_value = 50

[[record]]
mol_smiles = "COc1ncc(-c2ccc3nccc(=O)n3n2)cc1NS(=O)(=O)c1ccc(F)cc1F"
reported_value = 63

